measurementProtocol: viability of HCT116 lacking mutant beta-catenin – cell-based, human colon tumor, dose response (AID 1045);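 also: HCT116 colon tumor cells with beta catenin knocked out; cells exposed to compound for 60 hours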
Format: functional
Calls of active or inactive are those of the source. No rule for the calls is given here.
assayMetric: EC50

Recorded results for 3 compounds are shown here.
COc1cccc(/C=N/NC(=O)CNC(=O)C2COc3ccccc3O2)c1O (centres undefined) ... 10.9 µM (active)
O=C(N/N=C/c1c[nH]c2ccccc12)c1cc(-c2ccc(-c3ccccc3)cc2)[nH]n1 ... 8.8 µM (active)
COc1cc2cc(/C=C/C(=O)c3ccco3)c(Cl)nc2cc1OC ... 10.1 µM (active)

Inquiry: Respond only with EC50 recorded for O=C(Nc1ccccc1)Nc1ccc(F)c([N+](=O)[O-])c1
Reply text: 18.1 µM (active)
